The measurements presented in this section are drawn from the RNAGym collection of RNA variant scans (doi:10.7554/elife.90254).

B1: LINE1-mini (parent)
chain: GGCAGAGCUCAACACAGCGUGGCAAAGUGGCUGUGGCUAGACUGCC

variants of: B1; experiment: self-cleavage, relative activity (ratio to wild type); higher = more cleavage; in vitro, sequencing; the parent is a self-cleaving ribozyme
Returns one of satisfied or not satisfied; satisfied when self-cleavage is >= 0.07.

Below are worked cases with known answers.
| SEQUENCE VARIANT | CLASSIFICATION |
| --- | --- |
| G22C U43C | not satisfied |
| G19U G21C | satisfied |
| A16U G17U | not satisfied |

[Q] Reported self-cleavage reaches at least 0.07 for U28A G29C ?
[A] satisfied

[Q] Reported self-cleavage reaches at least 0.07 for U9C C18U ?
[A] not satisfied

[Q] Reported self-cleavage reaches at least 0.07 for G40A C46G ?
[A] satisfied

[Q] Reported self-cleavage reaches at least 0.07 for G19C U38C ?
[A] satisfied

[Q] Reported self-cleavage reaches at least 0.07 for U9A U34A ?
[A] satisfied

[Q] Reported self-cleavage reaches at least 0.07 for A16U A39C ?
[A] satisfied

[Q] Reported self-cleavage reaches at least 0.07 for U20G G30A ?
[A] satisfied
